Origin of values: PubChem BioAssay (NCATS)

assay: Cell Viability - LYMP1-003 - Assay at 40 hr (AID 964); conditions: LYMP1-003 lymphoblastoid viability; series mostly up to 92.2 µM; also: nearly all actives have a fitted effect of over 60% in size
Records with an inconclusive call do not appear. Active and inactive are the calls of the source. Calls follow the shape of the dose curve; as a rule, active = well fitted cell-killing curve with a large enough effect; inconclusive = small, poorly fitted or top-dose-only effect; inactive = flat fitted curve, though single readings scatter.
Choose the fitting class; nothing outside active, inactive is accepted.

Example results:
O=P(O)(OCc1ccccc1)OCc1ccccc1 ... inactive
CC(C=O)Cc1ccc(C(C)(C)C)cc1 (configuration not stated) ... inactive
COc1ccc(OC)cc1 ... inactive
BrC/C=C/CBr ... inactive
O=[N+]([O-])c1cc(C(F)(F)F)ccc1Cl ... inactive
O=C(O)c1c(Cl)cccc1Cl ... inactive
CC1CCC2CC1C2(C)C (configuration not stated) ... inactive
Cc1ccc(N(C)C)cc1 ... inactive

### Prompt Which outcome did this test record for the molecule N#CC1(O)CCCCC1 ?
### Response inactive

### Prompt Okay, and O=Cc1ccccc1Cl ?
### Response inactive

### Prompt Okay, and Cc1cc([N+](=O)[O-])ccc1N ?
### Response inactive

### Prompt Okay, and CC(=O)CC(C)C ?
### Response inactive

### Prompt Okay, and C=CC(=O)OCCCC ?
### Response inactive

### Prompt Okay, and Nc1ccc(F)cc1F ?
### Response inactive

### Prompt Okay, and C1COC1 ?
### Response inactive

### Prompt Okay, and O=C(O)c1cc(Cl)cc(Cl)c1 ?
### Response inactive

### Prompt Okay, and NC(=O)CCCCC(N)=O ?
### Response inactive

### Prompt Okay, and CCNc1cc(O)ccc1C ?
### Response inactive

### Prompt Okay, and O=CNc1ccccc1 ?
### Response inactive

### Prompt Okay, and Cc1cccc2sc(N)nc12 ?
### Response inactive

### Prompt Okay, and CCCCC(CC)COCC1CO1 (configuration not stated) ?
### Response inactive

### Prompt Okay, and O=C(O)CN(CC(=O)O)CC(=O)O ?
### Response inactive

### Prompt Okay, and C=C(C)OC(C)=O ?
### Response inactive

### Prompt Okay, and O=C(O)CNC(=O)c1ccc([N+](=O)[O-])cc1 ?
### Response inactive

### Prompt Okay, and Cc1ccc(C#N)cc1 ?
### Response inactive

### Prompt Okay, and Cc1ccc2oc(=O)ccc2c1 ?
### Response inactive

### Prompt Okay, and Cc1cccc(C(=O)O)c1[N+](=O)[O-] ?
### Response inactive

### Prompt Okay, and CC(C)=CCC/C(C)=C/C=O ?
### Response inactive
